- METHOD NOTES: refractive index (Na D-line) (dimensionless)
- CONDITION DETAILS: 358.15 K; 101.33 kPa; Liquid; Standard Abbe refractometry
QUANTITY NAME: refractive index

| COMPOUND | REPORTED RESULT |
| --- | --- |
| CCCCCCCCCC(=O)OC [methyl decanoate] | 1.39819 |
| CCCCCCCCCCCC(=O)OC [methyl dodecanoate] | 1.40513 |
| CCCCCCCCCCCCCC(=O)OCC [ethyl tetradecanoate] | 1.4101 |
| CCCCCC(=O)OC [methyl hexanoate] | 1.3749 |
| CCCCCCCC(=O)OC [methyl octanoate] | 1.38886 |
| CCCCCCCC(=O)OCC [ethyl octanoate] | 1.38955 |
| CCCCCCC(=O)OC [methyl heptanoate] | 1.38276 |
| CCCCCCCCCCCCCC(=O)OC [methyl tetradecanoate] | 1.41083 |
| CCCCCC(=O)OCC [ethyl hexanoate] | 1.37754 |
| CCCCCCCCCC(=O)OCC [ethyl decanoate] | 1.39826 |
| CCCCCCCCCCCC(=O)OCC [ethyl dodecanoate] | 1.40479 |
| CCCCCCC(=O)OCC [ethyl heptanoate] | 1.38421 |
